# credit: the RNAGym collection of RNA variant scans (doi:10.7554/elife.80360)

B1: HDV Ribozyme (parent)
chain: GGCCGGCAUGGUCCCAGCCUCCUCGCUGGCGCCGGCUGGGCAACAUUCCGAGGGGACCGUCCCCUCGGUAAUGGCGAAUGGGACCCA

Variants of: B1
method notes: self-cleavage, relative activity (ratio to wild type); higher = more cleavage; co-transcriptional
Below is a list of entries, each paired with its recorded self-cleavage value.

seq text	self-cleavage
GGCCGGCAUGGUCCCAGCCUCCUCGCUGGCGACGGCUGGGCAACAUUCCGAGGGGACCGACCCCUCGGUAAUGGCGAAUGGGACCCA [C32A U60A]	0.252
GGCCGGCAUGGUCCCAGCCUCCUCGCUGGCGCCGGCUGGGCAACAUUCCGAGGGGGCCGUCCCCUCGGUAAUGGCGCAUGGGACCCA [A56G A77C]	0.199
GGCCGGCAUGGUCCCAGCCUCCUCGCUGGCGCCGCCUGCGCAACAUUCCGAGGGGACCGUCCCCUCGGUAAUGGCGAAUGGGACCCA [G35C G39C]	0.119
GGCCGGCAUGGUCCCACCCUCCUCGCUGGCGCCGGCUGGGCACCAUUCCGAGGGGACCGUCCCCUCGGUAAUGGCGAAUGGGACCCA [G17C A43C]	0.119
GGCCGGCAUGGUCCCAGCCUCCUCGCUAGCGCCGGCUGGGCAACAUUCCGAGGGGACCGUCCCCUCGGUAAUGGCGAAUGGGACUCA [G28A C85U]	0.106
GGCCGGCAUGGUCCCAGCCUCCUCGCUGGCGCCGGCUGGGCAACAUUCCGCGGGGACCGUCCCGUCGGUAAUGGCGAAUGGGACCCA [A51C C64G]	1.09
GGCCGGCAUGGUCCCAGCCCCCUCGCUGGCGCCGGCUGGGCAACAUUCCGAGGGGACCGUCCCCUCGGUAAUGGCGAAUGGGACCAA [U20C C86A]	0.158
GGCCGGCAUGGUCCCAGCCUGCUCGCUGGCGCCGGCUGGGCAACAUUCCGAGGGGACCGUCGCCUCGGUAAUGGCGAAUGGGACCCA [C21G C62G]	0.0755
GGCCGGCAUGGUCCCAGCCUCCUCGCUGGCGCUGGCUGGGCAACAUUCCGAGGGGACCGUCCCCUCGGUAAUGGCGAGUGGGACCCA [C33U A78G]	0.228
GGCCGGCAUGGUCCCAGCCUCCUCGCUGUCGCUGGCUGGGCAACAUUCCGAGGGGACCGUCCCCUCGGUAAUGGCGAAUGGGACCCA [G29U C33U]	0.0563
GGCCGGCAUGGUCCCAGCCUCCACGCUGGCGCCGGCUGGGCAACAUUCCGAGGGGACCGUCCCCUCGGUAAUGGCGAAUGUGACCCA [U23A G81U]	0.134
GGCCGGCAUGGUCCCAGCCUCAUCGCUGUCGCCGGCUGGGCAACAUUCCGAGGGGACCGUCCCCUCGGUAAUGGCGAAUGGGACCCA [C22A G29U]	0.128
GGCCGGCACGGUCCCAGCCUCCUCGCUGGCGCCGGCUGGGCAACAUUCCGAGGGGACCGUCCCCUCGGUAAUGGCGGAUGGGACCCA [U9C A77G]	1.05
GGCCGGCAUGGUCCCAGCCUCCUCGCUGGCGCCGCCUGGGCAACAUUCCGAGGGGACCGUCCCCUCGGUAAUGGCGAAUGGGACCGA [G35C C86G]	0.0489
CGCCGGCAUGGUCCCAGCCUCCUCGCUGGCGCCGGCUGGGCAACAUUCCGAGGGGACCGUCCCCUCGGUAAUGGAGAAUGGGACCCA [G1C C75A]	0
GGCCGGCAUGGUCCCUGCCUCCUCGCUGGCGCCGGCUGGGCAACAUUCCGAGGGGACCGUCCCCUCGGUCAUGGCGAAUGGGACCCA [A16U A70C]	0.538
GGCCGGCAUGGUCCCAGCCUCCUCGCGGGCGCCGGCUGGGCAACAUUCCGUGGGGACCGUCCCCUCGGUAAUGGCGAAUGGGACCCA [U27G A51U]	0.677
GGCCGGCAUGGUCCCAGCCUCCUCGCUGGCGCCGGCUGGGCGACAUUCCGAGGGGACCGUCGCCUCGGUAAUGGCGAAUGGGACCCA [A42G C62G]	0.469
GGCCGGCAUGGUCCCAGCCUCCUCGCUGUCGCCGGCUGGGCAACAUUCCGAGGGGACCGUCCCCUCGAUAAUGGCGAAUGGGACCCA [G29U G68A]	0.0886
GGCCGGCAUGGUCCCAGCCUCCUCGCUGGUGCCGGCUGGGCAACAUUCCUAGGGGACCGUCCCCUCGGUAAUGGCGAAUGGGACCCA [C30U G50U]	0.645
GGCAGGCAUGGUCCCAGCCUCCUCGCUGGCGCCGGCUGGGCAACAUUCCGAGGGGACCGUCCCCUCUGUAAUGGCGAAUGGGACCCA [C4A G67U]	0.354
GGCCGGCAUGGUCCCAGCCUCCUCGCUGGCGCCGGCUGGGCAACAUUCCGAAGGGACCGUCCCCUCGAUAAUGGCGAAUGGGACCCA [G52A G68A]	0.788
GGCCGGCAUGGUCCCAGCCUCCUCCCUGGCGCCGGCUGGGCAUCAUUCCGAGGGGACCGUCCCCUCGGUAAUGGCGAAUGGGACCCA [G25C A43U]	0.147
GGCCGGCAUGGUCCCAGCCUCCUCGCUGGCGCCGGCUGGGCAACAUUCCGAGGGGUCCGUCCCCUCGGUAAUGGCGAAUGUGACCCA [A56U G81U]	0.381
GGCCGGCAUGGUCGCAGCCUCCUCGCUGGCGCCGGCUGGGCCACAUUCCGAGGGGACCGUCCCCUCGGUAAUGGCGAAUGGGACCCA [C14G A42C]	0.0923
GGCCGGCAUGGUCCCAGCCUCCUCGCUGGCGCCGGCUGGGCAACAUUCCGAGGGGACCGUCCCCUCGGUAAUGGCCAAUGUGACCCA [G76C G81U]	0.475
GGCCGGCAAGGUCCCAGCCUCCUCGCUGGCGCCGGCUGGGCAACAUUCCGAGGGGACCGUCCCCUCGGUAAAGGCGAAUGGGACCCA [U9A U72A]	0.712
GGCCGGCAUGGUCCCAGCCUCCUCACUGGCGCCGGCUUGGCAACAUUCCGAGGGGACCGUCCCCUCGGUAAUGGCGAAUGGGACCCA [G25A G38U]	0.0744
GGCCGGCAUGGCCCCAGCCUCCUCGCUGGCGCCGGCUGGGCAACAUGCCGAGGGGACCGUCCCCUCGGUAAUGGCGAAUGGGACCCA [U12C U47G]	0.119
GGCCGGCAUGGUCCCAGCCUCCUCGCUGGCGCCGGCUGGCCAACAUUCCGAGGGGACCGUCCCCUCGGUAAUGGCGAGUGGGACCCA [G40C A78G]	0.318
GGCCGGCAUGGUCCCAGCCUCCUCGCUGGGGCCGGCUGGGCAACAUUCCGAGGGGACCGUCCCCUCGGUAAUGGCGAAUGGGACCCC [C30G A87C]	0.122
GGCCGGCAUGGUCCCAGCCACCUCGCUGCCGCCGGCUGGGCAACAUUCCGAGGGGACCGUCCCCUCGGUAAUGGCGAAUGGGACCCA [U20A G29C]	0.128
GGCCGGCACGGACCCAGCCUCCUCGCUGGCGCCGGCUGGGCAACAUUCCGAGGGGACCGUCCCCUCGGUAAUGGCGAAUGGGACCCA [U9C U12A]	0.511
GGCCGGCAUGGUCCCAGCCUCCUCGAUGGCGCCGGCUGGGCAACAUUCCGAGGGGACCGUCCCCUCGGUGAUGGCGAAUGGGACCCA [C26A A70G]	1.11
GGCCGGCAUGGUCCCAGCCUCCUCGCUGGCGCCGGCUGGGCAACAUUCGGAGGGGAUCGUCCCCUCGGUAAUGGCGAAUGGGACCCA [C49G C57U]	0.945
GGCCGGCAUGGUCCAAGCCUCCUCGCUGGCGCCGGCUGGGCAACAUUCCGAGGGGACCGUCGCCUCGGUAAUGGCGAAUGGGACCCA [C15A C62G]	0.499
GGCCGGCAUGGGCCCAGCCUCCUCGCUGGCGCCGACUGGGCAACAUUCCGAGGGGACCGUCCCCUCGGUAAUGGCGAAUGGGACCCA [U12G G35A]	0.19
GGCCGGCAUGGUCCCAGCCUCCUCGCUGGCGCCGCCUGGGCAACAUUCCGAGGGGACCAUCCCCUCGGUAAUGGCGAAUGGGACCCA [G35C G59A]	0.256
GGCCGGCAUGGUCCCAGCCUCCUCGCCGGCGCCGACUGGGCAACAUUCCGAGGGGACCGUCCCCUCGGUAAUGGCGAAUGGGACCCA [U27C G35A]	0.389
GGCCGCCAUGGUCCCAGCCUCCUCGCUGGCGCCGGCUGGGCAACAUUCCGAGGGGACCGUCCUCUCGGUAAUGGCGAAUGGGACCCA [G6C C63U]	0.348
GGCCGGCAUGGUCCCAGCCUCCUCGCUGGCGCCGGCUGGGCAACAUUCCGAGGGGGCCUUCCCCUCGGUAAUGGCGAAUGGGACCCA [A56G G59U]	1.06
GGCCGGCAAGGUCACAGCCUCCUCGCUGGCGCCGGCUGGGCAACAUUCCGAGGGGACCGUCCCCUCGGUAAUGGCGAAUGGGACCCA [U9A C14A]	0.65
GGCCGGCAUGGUCCCACCCUUCUCGCUGGCGCCGGCUGGGCAACAUUCCGAGGGGACCGUCCCCUCGGUAAUGGCGAAUGGGACCCA [G17C C21U]	0.0923
GGCCGGCAUGGUCCCAGCCUCCUCGCUGGCGCCGGCUGGGCAACAUUCCGAGGGGACGGUCCCCUCGGUAAUGGCGAAGGGGACCCA [C58G U79G]	0.776
GGCCGGCAUGGUCCCAGCCUCCUCGCUGGCGCCGGAUGGGCAACAUUCCGAGGGGACCGUCCCCUCGGUAAUGGCGAAUGGGACCAA [C36A C86A]	0.134
GGCCGGCAUGGUCCCAGCCUCCUCGCUGGCGCCGGCUGCCCAACAUUCCGAGGGGACCGUCCCCUCGGUAAUGGCGAAUGGGACCCA [G39C G40C]	0.215
